GI50 values by entry
System: IGROV-1
Assay: NCI tumour cell line growth inhibition, 48 h
Calls of active or inactive are those of the source. Rule as the data show it: active = GI50 up to about 1.1 µM and inactive = higher.
measured.endpoint: GI50

# compound, target.or.system, measured.endpoint, test.value
rows = [
    ("COc1ccc2c([nH]c3cc(O)c(C)cc32)c1CC=C(C)C", "IGROV-1", "GI50", "23.1 µM (inactive)"),
    ("NC(=O)C(=O)c1ncn(Cc2ccccc2)c1N", "IGROV-1", "GI50", "> 100 µM (inactive)"),
    ("CCC1(O)C[C@H]2CN(CCCc3c([nH]c4ccccc34)[C@@](C(=O)OC)(c3cc4c(cc3OC)N(C)C3[C@](O)(C(=O)OC)[C@H](OC(C)=O)[C@]5(CC)C=CCN6CC[C@]43[C@H]65)C2)C1 (stereo not given in full)", "IGROV-1", "GI50", "2.88 µM (inactive)"),
    ("CCOC(=O)Cn1c(=O)c2nc(SC)sc2n(CC)c1=S", "IGROV-1", "GI50", "94 µM (inactive)"),
    ("CCC1=C(C(C)=O)[C@@H]2CCCCC[C@@H](C(=O)OC)C2C1=O (stereo not given in full)", "IGROV-1", "GI50", "> 100 µM (inactive)"),
    ("COC(=O)c1nc(-c2ccc3c(n2)C(=O)C(=N)C(OC)=C3O)c(N)c(-c2ccc(OC)c(OC)c2O)c1C", "IGROV-1", "GI50", "1.7 µM (inactive)"),
    ("O=C(O)c1ccccc1C(=O)OCC1CCCN2CCCCC12 (stereo not given)", "IGROV-1", "GI50", "> 100 µM (inactive)"),
    ("O=C(CN1CCCC1)Nc1ccc2c(c1)C1Oc3ccccc3CC1CO2 (stereo not given)", "IGROV-1", "GI50", "36.6 µM (inactive)"),
    ("CC(=O)On1c(-c2ccccc2-c2nc3ccccc3n2OC(C)=O)nc2ccccc21", "IGROV-1", "GI50", "22.1 µM (inactive)"),
    ("CC1(C)C(C(=O)OC(C#N)c2cccc(OCC(=O)OCc3ccccc3)c2)C1(C)C (stereo not given)", "IGROV-1", "GI50", "> 100 µM (inactive)"),
]

----------
Test system: UACC-62
Test: NCI tumour cell line growth inhibition, 48 h
Active and inactive are the calls of the source. Cut-off read from the data, not from the text of the source: active = GI50 up to about 1.1 µM and inactive = higher. *1 amine or outer side, *2 acyl side, *3 side chain or, on linkers, in order; H or OH if unused. Where a SMILES comes first, the peptide text is derived from it. Bridges are numbered along the chain shown (N, C = ends). [ ]: non-standard residue; d: D form. The star is where a group is joined. X56 = CC(C)C(C)C(C(=O)[*:2])N(C)[*:1]; Picolinoyl(3-OH) = O=C(c1ncccc1O)*; NMePhg = CN[CH](C(=O)O)c1ccccc1; Hyp = O=C(O)[CH]1C[CH](O)CN1; Sar = CNCC(=O)O
Classes used: active, inactive

# compound, class
records = [
    ("CC1C(c2ccc(N(C)C)cc2)c2cc3c(cc2OC1N1CCCC1)OCO3 (configuration not stated)", "inactive"),
    ("CCOC(=O)/C=C(/C(=O)OCC)n1cc(C)c(=O)n(Cc2cn(CCCCOC(C)=O)nn2)c1=O", "inactive"),
    ("COc1ccc(CC2Cc3ccccc3CCN2)cc1OC (configuration not stated)", "inactive"),
    ("Cc1nc2ccccc2nc1-c1ccc(/N=[N+](\\[O-])c2ccc(-c3nc4ccccc4nc3C)cc2)cc1", "inactive"),
    ("COc1cc(C2c3cc4c(cc3OC(Nc3ccccc3)C2C)OCO4)cc(OC)c1O (configuration not stated)", "inactive"),
    ("CCCSCC(P(=O)(O)O)P(=O)(O)O.NC1CCCCC1", "inactive"),
    ("CCOC(=O)C1(Cc2ccc3ccccc3c2)CCCCCN1 (configuration not stated)", "inactive"),
    ("COC(=O)c1c(C)nc(C)c(NO)c1-c1ccccc1C(F)(F)F", "inactive"),
    ("Cc1cc(Br)c(N2C3=C(CC4=C2CCCC4=O)C(=O)CCC3)c(Br)c1", "inactive"),
    ("CC(C)C(Br)C(=O)NCC(=O)O (configuration not stated)", "inactive"),
    ("O=C(O)c1ccc(C(c2c(O)oc3ccccc3c2=O)c2c(O)oc3ccccc3c2=O)cc1", "inactive"),
    ("COC(=O)[C@@H](Nc1ccccc1)[C@@]1(C(=O)OC)SC12c1ccccc1-c1ccccc12", "inactive"),
    ("CC(C)CC1NC(=O)C(NC(=O)c2ncccc2O)C(C)OC(=O)C(c2ccccc2)N(C)C(=O)C(C)NC(=O)C(C(C)C(C)C)N(C)C(=O)CN(C)C(=O)C2CC(O)CN2C1=O (configuration not stated) ({Picolinoyl(3-OH)}-TL[Hyp][Sar][X56]A[NMePhg]; ester 1-C; configuration not given here)", "inactive"),
    ("COc1ccc2c(c1)CCc1c-2n(CCN(C)C)c2ccc(OC)cc12", "inactive"),
    ("CCc1cccc(C(C)CC)c1NC(=O)C(=O)Cc1nc2ccccc2o1 (configuration not stated)", "inactive"),
    ("CCOC(=O)c1ccc(O)cc1", "inactive"),
    ("CCOC(=O)N1Cc2ccoc2C1", "inactive"),
    ("COC1/C=C\\C=C(/C)C(=O)NC2=CC(=O)C=C(C2=O)C(OC)C(C)CC(OC)C(OC)C(C)/C=C(/C)C1OC(N)=O (configuration not stated)", "active"),
    ("CCCCCCCC(=O)OC[C@@H](C[As](=O)(O)O)OC(=O)CCCCCCC", "inactive"),
    ("CC1=C(C(=O)OC(C)C)C(c2ccccc2[N+](=O)[O-])C(C(=O)OC(CO[N+](=O)[O-])CO[N+](=O)[O-])=C(C)N1 (configuration not stated)", "inactive"),
    ("COC(=O)c1c(O)ccc2c1c1c(n2Cc2ccccc2Cl)C(=O)c2ccccc2C1=O", "inactive"),
    ("O=C1CCc2ccccc2O1 [DIHYDROCOUMARIN]", "inactive"),
    ("COc1ccc2c3c([nH]c2c1)CCN(CCCC(=O)c1ccc(F)cc1)C3", "inactive"),
    ("O=C(O)/C=C/C(=O)Nc1nc[nH]n1", "inactive"),
    ("CC1=NOC(=O)/C1=C/c1ccc2c(c1)OCO2", "inactive"),
    ("O=C(c1ccc(Cl)cc1)N(C(=S)OCc1ccccn1)c1ccccc1", "inactive"),
    ("O=C1C(Cl)=C(N2CCN(C3=C(Cl)C(=O)c4ccccc4C3=O)CC2)C(=O)c2ccccc21", "inactive"),
    ("COc1cc2c(cc1OC)C(=O)Cc1ccc3c(c1CNCC2)OCO3", "inactive"),
    ("O=C(Cc1ccccc1)NCCc1ccc(O)c(O)c1", "inactive"),
    ("COC(=O)NC1=NNC(=O)c2ccccc2N1", "inactive"),
    ("NCCSc1nc(N)c2ncn(C3OC(CO)C(O)C3O)c2n1 (configuration not stated)", "inactive"),
    ("CO[C@@]12C[C@@H](C)C3=CCC(C)=C3CC1=C(C)C(=O)O2", "inactive"),
    ("COCCOCCOC1=C(Cl)C(=O)c2c(O)ccc(O)c2C1=O", "inactive"),
    ("NC(=O)Cc1nc2c(N)ncnc2n1C1OC(CO)C(O)C1O (configuration not stated)", "inactive"),
    ("CC(=O)OCCOCCN1CCN(C2=C(Cl)C(=O)c3c(O)ccc(O)c3C2=O)CC1", "inactive"),
    ("COc1ccc(-n2c(=O)n(C)c(=O)n2-c2c(C)c(C)c(C)c(C)c2C)cc1", "inactive"),
    ("C=O.NNCCc1n[nH]c(=O)n1N", "inactive"),
    ("FC1=C2CCCCCC2SC1(F)F (configuration not stated)", "inactive"),
    ("O=[N+]([O-])c1ccccc1S(=O)(=O)c1ccccc1[N+](=O)[O-]", "inactive"),
    ("Cc1cn(C2CC(N)C(CN)O2)c(=O)[nH]c1=O (configuration not stated)", "inactive"),
    ("COc1ccc2oc3c4c2c1CCC4CCC3=O (configuration not stated)", "inactive"),
    ("CCN(CC)Cc1sc2nc3ccccc3n2c1-c1ccc(OC)cc1", "inactive"),
]
